Recorded values, source patent US11529341B2.

Target: PD-1/PD-L1 interaction (Homo sapiens)
Construct: Tag1 (undisclosed kit tag)
Sequence (Q9NZQ7 19-238 limits assumed): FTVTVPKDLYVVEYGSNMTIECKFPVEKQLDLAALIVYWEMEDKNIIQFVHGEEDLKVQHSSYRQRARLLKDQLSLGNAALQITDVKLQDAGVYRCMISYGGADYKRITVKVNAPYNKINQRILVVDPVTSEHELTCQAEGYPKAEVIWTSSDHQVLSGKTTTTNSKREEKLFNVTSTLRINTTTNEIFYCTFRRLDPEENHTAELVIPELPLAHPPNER
Test: PD-1/PD-L1 Homogenous Time-Resolved Fluorescence (HTRF) binding assay (CisBio kit)
Details: Biochemical PD1/PD-L1 inhibition
Recorded metric: IC50

Request: I would be grateful if you could share the reported IC50 for N#Cc1cncc(COc2cc(OCc3cccc(-c4ccccc4)c3C#N)c3c(c2CN2CCC[C@@H]4C[C@@]42C(=O)O)CCC3)c1 (racemic) [Compound 72] .
Response: < 100 nM

Request: I would be grateful if you could share the reported IC50 for CC(=O)NCCNCc1c(OC(C)c2cccc(C#N)c2)cc(OCc2cccc(-c3ccccc3)c2C)c2c1CCC2 (stereo not shown) [Compound 14] .
Response: > 500 nM

Request: I would be grateful if you could share the reported IC50 for CC(=O)NCCN(C)Cc1c(OCc2cccc(C#N)c2)cc(OCc2cccc(-c3ccccc3)c2C)c2c1CCC2 [Compound 53] .
Response: < 100 nM

Request: I would be grateful if you could share the reported IC50 for COc1cc(OCc2cccc(-c3ccc4c(c3)OCCO4)c2C)c2c(c1CN1CCCC[C@H]1C(=O)O)CCC2 [Compound 84] .
Response: < 100 nM

Request: I would be grateful if you could share the reported IC50 for Cc1c(COc2cc(OCc3cccc(C#N)c3)c(CN3CCC[C@@H]4C[C@@]43C(=O)O)c3c2CCC3)cccc1-c1ccccc1 (racemic) [Compound 43] .
Response: < 100 nM

Request: I would be grateful if you could share the reported IC50 for Cc1c(COc2c(Cl)cc(CN3CCCC[C@H]3C(=O)O)c3c2CCC3)cccc1-c1ccccc1 [Compound 5] .
Response: 100 to 500 nM

Request: I would be grateful if you could share the reported IC50 for Cc1c(COc2cc(OCc3cccc(C#N)c3)c(CNCC(=O)O)c3c2CCC3)cccc1-c1ccccc1 [Compound 41] .
Response: < 100 nM
